Numbers sourced from the supplement of paper PMC9177965.

Tested on: HT29 sg-Ctrl (RNF43 wildtype)
protocol-text: cell viability activity relative to DMSO (negative = inhibition); higher = more viable cells (less growth inhibition)
run-parameters: 5 µM; 96 h
quantity-measured: cell viability activity (%)
Unit % implied. Number only.

Known cell viability activity results, listed for orientation:
chemical-smiles	cell viability activity [%]
COc1cc([C@@H]2c3cc4c(cc3[C@H](O)[C@H]3COC(=O)[C@H]23)OCO4)cc(OC)c1OC	-58.2
CCN(CC)CCO[C@H]1CC[C@@]2(C)C(=CC[C@@H]3[C@@H]2CC[C@]2(C)C(=O)CC[C@@H]32)C1	-52.8
N#Cc1cn([C@@H]2O[C@H](CO)[C@@H](O)[C@H]2O)c2ncnc(N)c12	-89.9
NC(=O)c1cn([C@@H]2O[C@H](CO)[C@@H](O)[C@H]2O)c2ncnc(N)c12	-93
COc1ccc(CCN2CCC(Nc3nc4ccccc4n3Cc3ccc(F)cc3)CC2)cc1	-3.92
Oc1cccc2cccnc12	-34.8
C/C1=C/C[C@@H](/C(C)=C/c2csc(C)n2)OC(=O)C[C@H](O)C(C)(C)C(=O)[C@H](C)[C@@H](O)[C@@H](C)CCC1	-42.3
Oc1cc(Cl)ccc1Oc1ccc(Cl)cc1Cl	-92.8
CN1CCN(c2cccc3[nH]c(=O)oc23)CC1	-54.8
C[C@@H]1CC[C@@]2(OC1)O[C@H]1C[C@H]3[C@@H]4CC=C5C[C@@H](O[C@@H]6O[C@H](CO)[C@@H](O[C@@H]7O[C@@H](C)[C@H](O)[C@@H](O)[C@H]7O)[C@H](O)[C@H]6O[C@@H]6O[C@@H](C)[C@H](O)[C@@H](O)[C@H]6O)CC[C@]5(C)[C@H]4CC[C@]3(C)[C@H]1[C@@H]2C	-63.5

query: # input compound: CC(=O)O[C@H]1C[C@H](O[C@H]2[C@@H](O)C[C@H](O[C@H]3[C@@H](O)C[C@H](O[C@H]4CC[C@@]5(C)[C@H](CC[C@@H]6[C@@H]5C[C@@H](O)[C@]5(C)[C@@H](C7=CC(=O)OC7)CC[C@]65O)C4)O[C@@H]3C)O[C@@H]2C)O[C@H](C)[C@H]1O[C@@H]1O[C@H](CO)[C@@H](O)[C@H](O)[C@H]1O ; wanted: its cell viability activity
result: -89.1

query: What would you report for Cn1c(COP(=O)(NCCBr)NCCBr)cnc1[N+](=O)[O-] ?
result: -27.3

query: What would you report for C[C@]12CC[C@H](O)C[C@H]1CC[C@@H]1[C@@H]2CC[C@]2(C)[C@@H](C3=CC(=O)OC3)CC[C@]12O ?
result: -86.7

query: What would you report for C/C=C(\C)C(=O)N[C@@H](c1ccccc1)[C@@H](O)C(=O)O[C@H]1C[C@@]2(O)[C@@H](OC(=O)c3ccccc3)[C@@H]3[C@]4(OC(C)=O)CO[C@@H]4C[C@H](O)[C@@]3(C)C(=O)[C@H](OC(C)=O)C(=C1C)C2(C)C ?
result: -69.3

query: What would you report for CCCCCCCCCCCCCCCC[n+]1ccccc1 ?
result: -79.9
